- CONDITION_PARAMETERS: in methanol, 318.15 K

STRUCTURE_STRING | solubility (mole fraction)
CS(=O)(=O)c1ccc(C(=O)C2C(=O)CCCC2=O)c([N+](=O)[O-])c1 | 0.00842

====

- CONDITION_PARAMETERS: in n-butanol, 288.15 K

STRUCTURE_STRING | solubility (mole fraction)
CS(=O)(=O)c1ccc(C(=O)C2C(=O)CCCC2=O)c([N+](=O)[O-])c1 | 0.000999

====

- CONDITION_PARAMETERS: in cyclohexane, 283.15 K

STRUCTURE_STRING | solubility (mole fraction)
CS(=O)(=O)c1ccc(C(=O)C2C(=O)CCCC2=O)c([N+](=O)[O-])c1 | 0.000321
